I'd be grateful if you could share measured plant injury at 125 g/ha for these entries.
tested on: spring barley; test: Test D preemergence; type: in vivo, Hordeum vulgare; details: Hordeum vulgare, pre-emergence, 125 g ai/ha, scale 0-100, read-out: Plant response rating, Barley, Spring
Answers are plain numbers, in %.

Please review the following examples before continuing.
Lookup: Read off the recorded plant injury at 125 g/ha for N#Cc1cccc(Oc2ncc(Cl)cn2)c1-n1cc(C(F)(F)F)cn1 [Compound 58]
Found: 85

Lookup: Read off the recorded plant injury at 125 g/ha for FC(F)(F)c1cn(-c2ccccc2Oc2ncc(Cl)cn2)nn1 [Compound 166]
Found: 60

Lookup: Read off the recorded plant injury at 125 g/ha for N#Cc1cccc(Oc2ncc(Br)cn2)c1-n1cc(C(F)(F)F)cn1 [Compound 59]
Found: 50

We now examine a further compound.
Lookup: Read off the recorded plant injury at 125 g/ha for Clc1cnc(Oc2ccccc2-n2cc(Br)cn2)nc1 [Compound 7]
Found: 0

###

I'd be grateful if you could share measured Pigweed plant response rating for these entries.
system: pigweed; experiment: Test A preemergence; format: in vivo, Amaranthus retroflexus; settings: 500 g ai/ha, 0 to 100 scale, 0 no effect, 100 complete control, approx. 10 days

Please review the following examples before continuing.
Lookup: Read off the recorded Pigweed plant response rating for `N#Cc1cnn(-c2c(C#N)cccc2Oc2ncc(F)cn2)c1`
Found: 100

Lookup: Read off the recorded Pigweed plant response rating for `Brc1cnc(Oc2ccccc2-n2cc(Br)cn2)nc1`
Found: 100

Lookup: Read off the recorded Pigweed plant response rating for `Oc1cccc(Oc2ncc(Cl)cn2)c1-n1cc(Br)cn1`
Found: 30

Lookup: Read off the recorded Pigweed plant response rating for `CC(C)(C)c1ccn(-c2ccccc2Oc2ncc(Cl)cn2)n1`
Found: 0

Lookup: Read off the recorded Pigweed plant response rating for `CC(C)(C)c1cnn(-c2c(C#N)cccc2Oc2ncc(Cl)cn2)c1`
Found: 60

Report Pigweed plant response rating for every entry below.
1. Fc1cnc(Oc2cccc(C(F)F)c2-n2cc(Br)cn2)nc1
2. Clc1cnc(Oc2ccccc2-n2cc(Cl)cn2)nc1
3. N#Cc1cccc(Oc2ncc(I)cn2)c1-n1cc(Br)cn1

Found:
100
100
100

Report Pigweed plant response rating for every entry below.
1. Cc1nn(-c2ccccc2Oc2ncc(Cl)cn2)cc1Cl
2. CCOc1cnn(-c2c(C#N)cccc2Oc2ncc(Cl)cn2)c1

Found:
[0, 100]

###

I'd be grateful if you could share measured pest or weed control at 62 g/ha for these entries.
tested on: bluegrass; assay: Test D postemergence; assay type: in vivo, Poa annua; conditions: Poa annua, post-emergence; Postemergence; 62 g ai/ha; scale 0 to 100 (0 no effect, 100 complete control); read-out: Plant response rating, Bluegrass
One number for each entry, in %.

Lookup: Read off the recorded pest or weed control at 62 g/ha for N#Cc1cccc(Oc2ncc(Cl)cn2)c1-n1cc(C(F)(F)F)cn1 [Compound 58]
Found: 35

Report pest or weed control at 62 g/ha for every entry below.
1. Fc1cccc(Oc2ncc(Cl)cn2)c1-n1cc(Br)cn1 [Compound 178]
2. Clc1cnc(Oc2ccccc2-n2cc(Br)cn2)nc1 [Compound 7]
3. N#Cc1cccc(Oc2ncc(Br)cn2)c1-n1cc(C(F)(F)F)cn1 [Compound 59]

Found:
[35, 0, 15]

Lookup: Read off the recorded pest or weed control at 62 g/ha for FC(F)(F)c1cnn(-c2ccccc2Oc2ncc(Br)cn2)c1 [Compound 18]
Found: 30

###

system: barnyardgrass; assay: Test B flooded paddy test; assay type: in vivo, Echinochloa crus-galli; conditions: Flood, 250 g ai/ha; 0 to 100 scale where 0 is no effect and 100 is complete control
measuredMetric: Plant response rating, Barnyardgrass
Numbers only.

Please review the following examples before continuing.
Lookup: Read off the recorded Plant response rating, Barnyardgrass for `Fc1cccc(Oc2ncc(Cl)cn2)c1-n1ccnn1`
Found: 0

Lookup: Read off the recorded Plant response rating, Barnyardgrass for `Cc1nn(-c2ccccc2Oc2ncc(Cl)cn2)cc1Br`
Found: 0

Lookup: Read off the recorded Plant response rating, Barnyardgrass for `Brc1cnc(Oc2ccccc2-n2cccn2)nc1`
Found: 0

Report Plant response rating, Barnyardgrass for every entry below.
1. Fc1cccc(Oc2ncc(Cl)cn2)c1-n1cc(C2CC2)nn1
2. Fc1cccc(Oc2ncc(Cl)cn2)c1-n1cc(C2CCCC2)nn1

Found:
[40, 0]

###

tested on: corn; assay: Test C postemergence; format: in vivo, Zea mays; conditions: 16 g ai/ha, postemergence; 0 is no effect, 100 is complete control
measuredMetric: Plant response rating (0 to 100), Corn
Answers are plain numbers.

Report Plant response rating (0 to 100), Corn for every entry below.
1. N#Cc1cn(-c2c(Br)cccc2Oc2ncc(Cl)cn2)nn1 [Compound 116]
2. FCc1cn(-c2c(F)cccc2Oc2ncc(Cl)cn2)nn1 [Compound 154]

Found:
1: 0; 2: 0

Report Plant response rating (0 to 100), Corn for every entry below.
1. Cc1cnc(Oc2cccc(C#N)c2-n2cc(I)cn2)nc1 [Compound 136]
2. CCCOc1cnn(-c2c(C#N)cccc2Oc2ncc(Cl)cn2)c1 [Compound 150]

Found:
1. 0
2. 5

###

test system: ragweed; test: Test E preemergence; type: in vivo, Ambrosia elatior; details: 62 g ai/ha, scale 0 to 100 (0 no effect, 100 complete control)
measuredMetric: Ragweed plant response rating
Give bare numbers.

Report Ragweed plant response rating for every entry below.
1. FC(F)c1cccc(Oc2ncc(Cl)cn2)c1-n1cc(Br)cn1 [Compound 194]
2. N#Cc1cccc(Oc2ncc(Cl)cn2)c1-n1cc(C(F)(F)F)cn1 [Compound 58]
3. N#Cc1cccc(Oc2ncc(Br)cn2)c1-n1cc(C(F)(F)F)cn1 [Compound 59]
4. FC(F)(F)c1cnn(-c2ccccc2Oc2ncc(Br)cn2)c1 [Compound 18]
5. FC(F)(F)c1cnn(-c2c(Cl)cccc2Oc2ncc(Cl)cn2)c1 [Compound 167]

Found:
20
5
0
0
35

###

I'd be grateful if you could share measured Plant response rating (0 to 100), Ragweed for these entries.
test system: ragweed; assay: Test C postemergence; type: in vivo, Ambrosia elatior; conditions: 125 g ai/ha, postemergence
Give bare numbers.

Please review the following examples before continuing.
Lookup: Read off the recorded Plant response rating (0 to 100), Ragweed for `Clc1cnc(Oc2cccc(Br)c2-n2cc(Br)cn2)nc1`
Found: 35

Lookup: Read off the recorded Plant response rating (0 to 100), Ragweed for `CCOc1cnn(-c2c(C#N)cccc2Oc2ncc(F)cn2)c1`
Found: 70

Lookup: Read off the recorded Plant response rating (0 to 100), Ragweed for `FCc1cccc(Oc2ncc(Cl)cn2)c1-n1cc(Br)cn1`
Found: 70

Lookup: Read off the recorded Plant response rating (0 to 100), Ragweed for `N#Cc1cccc(Oc2ncc(F)cn2)c1-n1cc(Cl)cn1`
Found: 50

Lookup: Read off the recorded Plant response rating (0 to 100), Ragweed for `CCOc1cn(-c2c(Br)cccc2Oc2ncc(Cl)cn2)nn1`
Found: 80

We now examine a further molecule.
Lookup: Read off the recorded Plant response rating (0 to 100), Ragweed for `N#Cc1cccc(Oc2ncc(F)cn2)c1-n1cc(Br)cn1`
Found: 50

###

test system: barnyardgrass; test: Test A preemergence; type: in vivo, Echinochloa crus-galli; conditions: 31 g ai/ha, 0 to 100 scale where 0 is no effect and 100 is complete control, visual, approximately 10 days
measuredMetric: Plant response rating, Barnyardgrass
Answers are plain numbers.

Report Plant response rating, Barnyardgrass for every entry below.
1. Fc1cnc(Oc2ccccc2-n2cc(OCC(F)(F)F)cn2)nc1 [Compound 241]
2. Fc1cccc(Oc2ncc(Cl)cn2)c1-n1cc(OCC(F)(F)F)cn1 [Compound 270]
3. FC(F)(F)COc1cnn(-c2c(Br)cccc2Oc2ncc(Cl)cn2)c1 [Compound 128]
4. N#Cc1cnn(-c2c(CF)cccc2Oc2ncc(F)cn2)c1 [Compound 151]

Found:
[10, 20, 10, 20]

Report Plant response rating, Barnyardgrass for every entry below.
1. Cc1cc(C(F)F)nn1-c1ccccc1Oc1ncc(Cl)cn1 [Compound 267]
2. N#Cc1cccc(Oc2ncc(Cl)cn2)c1-n1ccnc1 [Compound 261]

Found:
0
0

###

test system: rice; assay: Test B flooded paddy test; format: in vivo, Oryza sativa; details: Flood, 250 g ai/ha; 0 to 100 scale where 0 is no effect and 100 is complete control
I'd be grateful if you could share measured Plant response rating, Rice for these entries.
Answers are plain numbers.

Please review the following examples before continuing.
Lookup: Read off the recorded Plant response rating, Rice for `Cc1cc(C(F)F)nn1-c1ccccc1Oc1ncc(Cl)cn1`
Found: 0

Lookup: Read off the recorded Plant response rating, Rice for `FCc1cccc(Oc2ncc(Cl)cn2)c1-n1cc(C(F)(F)F)cn1`
Found: 25

Lookup: Read off the recorded Plant response rating, Rice for `Clc1cnc(Oc2cccc(Br)c2-n2cc(Br)cn2)nc1`
Found: 0

Lookup: Read off the recorded Plant response rating, Rice for `N#Cc1cnn(-c2c(C=O)cccc2Oc2ncc(Cl)cn2)c1`
Found: 0

Lookup: Read off the recorded Plant response rating, Rice for `N#Cc1cccc(Oc2ncc(Cl)cn2)c1-n1cc(I)cn1`
Found: 20

Report Plant response rating, Rice for every entry below.
1. FC(F)c1cccc(Oc2ncc(Cl)cn2)c1-n1cncc1Br
2. FCc1cn(-c2c(F)cccc2Oc2ncc(Cl)cn2)nn1
3. N#Cc1cccc(Oc2ncc(Cl)cn2)c1-n1cc(-n2ccc(C(F)(F)F)n2)cn1
4. O=Cc1cccc(Oc2ncc(Br)cn2)c1-n1cc(C(F)(F)F)cn1

Found:
0
10
0
0
